- Tested on: NIH3T3
- protocol.details: Cytotoxic Profiling of Annotated Libraries Using Quantitative High-Throughput Screening (AID 1296008); further: nearly all actives have a fitted effect of over 60% in size; on max response: on the % scale 0 is the no-effect control and ±100 the full control effect
- stated.conditions: Five cell lines viability, CellTiter-Glo ATP luminescence, 48-72 h; stronger effect = lower value
Results filed as inconclusive are left out.
attribute.measured: max response (%)
Please respond with the number in % and leave the unit unwritten.

// lookup max response | system=NIH3T3 | key= CC(C)CC1NC(=O)C(C)NC(=O)C(CC(C)C)OC(=O)CCCNC1=O (stereo not given)
-22.2

Cool, now CC(C)C[C@H](CC(=O)NO)C(=O)N[C@@H](Cc1ccc2ccccc2c1)C(=O)N[C@@H](C)C(=O)NCCN
-2.62

Try OC[C@H]1O[C@@H](O[C@H]2[C@H](OCCc3ccccc3)O[C@H](CO)[C@@H](O)[C@@H]2O)[C@H](O)[C@@H](O)[C@@H]1O next.
-1.68

Another compound to check: O=C1NC2CCc3nc4ccccc4c(=O)n3C2=Nc2ccccc21 (stereo not given)
4.44

Queued: CC1(C)CC[C@]2(C(=O)O[C@@H]3O[C@H](CO)[C@@H](O)[C@H](O)[C@H]3O)CC[C@]3(C)C(=CCC4[C@@]5(C)C[C@@H](O)[C@H](O)[C@](C)(C(=O)O)C5CC[C@]43C)C2C1O (stereo not given in full)
-9.14

* * *

- Test system: Hek293T
- protocol.details: Primary qHTS to identify gynecologic anti-cancer compounds using libraries of approved drugs and bioactive compounds (AID 1345084); further: nearly all actives have a fitted effect of over 55% in size
- stated.conditions: Gynecologic cancer cell panel viability, ATPlite luminescence, 48 h, control line for the selectivity index; series mostly up to 57.5 µM
Results filed as inconclusive are left out. Activity calls are given as the source filed them. Calls come from the whole dose curve; as a rule, active = well fitted cell-killing curve with a large enough effect; inconclusive = small, poorly fitted or top-dose-only effect, or effect the other way; inactive = flat fitted curve, though single readings scatter.
Returns: one label drawn from true (1) (active), false (0) (inactive)

# lookup: test call for Cc1cc(C(=O)Nc2cccc(C(=O)Nc3cccc(C(F)(F)F)c3)c2)on1
false (0)

How about this molecule: COc1ccc(F)cc1-c1cc(NC(=O)[C@@H]2CCCNC2)ncc1Cl
true (1)

Can you handle C=C(C)C1CCC(C)C12CC(O)C1(C)OC1C2OC(=O)C(N)CCC(=O)O (stereo unspecified) next?
false (0)

Would you mind doing C=C1C[C@]23C[C@H]1CC[C@H]2[C@]1(C)CCC[C@@](C)(C(=O)O)[C@H]1[C@@H]3C(=O)O as well?
false (0)

Thanks! And C/C(=C\C=C\C(C)C1CCC2(C)C3CCC4C(C)(C)C(=O)CCC45CC35CCC12C)C(=O)O (stereo unspecified) ?
false (0)

* * *

Recorded max response by entry
- Tested on: NIH3T3
- protocol.details: Cytotoxic Profiling of Annotated Libraries Using Quantitative High-Throughput Screening (AID 1296008); further: nearly all actives have a fitted effect of over 60% in size; on max response: on the % scale 0 is the no-effect control and ±100 the full control effect
- stated.conditions: Five cell lines viability, CellTiter-Glo ATP luminescence, 48-72 h; stronger effect = lower value
Results filed as inconclusive are left out. The source made the active and inactive calls. Calls follow the shape of the dose curve; as a rule, active = well fitted inhibition curve with a large enough effect; inconclusive = small, poorly fitted or top-dose-only effect; inactive = flat fitted curve, though single readings scatter.

- molecule: "COC(=O)C1=CO[C@@H](O[C@@H]2O[C@H](CO)[C@@H](O)[C@H](O)[C@H]2O)[C@H]2[C@@H]1CC(OC)O[C@@H]2C (some centres undefined)"
  max response: "-1.67% (inactive)"
- molecule: "O=C(NCc1ccc(F)cc1)C(=O)c1c[nH]c2ccccc12"
  max response: "-16.4% (inactive)"
- molecule: "C=C[C@H]1[C@H](O[C@@H]2O[C@H](CO)[C@@H](O)[C@H](O)[C@H]2O)OC=C(C(=O)OC)[C@H]1C/C=C(/C=O)[C@@H]1C(C(=O)OC)=CO[C@@H](O[C@@H]2O[C@H](CO)[C@@H](O)[C@H](O)[C@H]2O)[C@@H]1C=C"
  max response: "4.13% (inactive)"

# max response lookup, item C[C@@H]1C(=O)O[C@H]2[C@@H](O)C34[C@H]5C[C@@H](C(C)(C)C)C36[C@@H](OC(=O)[C@@H]6O)O[C@@]4(C(=O)O5)[C@@]12O (some centres undefined)
-0.498% (inactive)

* * *

- System: NIH3T3
- protocol.details: Cytotoxic Profiling of Annotated Libraries Using Quantitative High-Throughput Screening (AID 1296008); further: nearly all actives have a fitted effect of over 60% in size
- stated.conditions: Five cell lines viability, CellTiter-Glo ATP luminescence, 48-72 h
Records with an inconclusive call do not appear. Calls of active or inactive are those of the source. Calls come from the whole dose curve; as a rule, active = well fitted inhibition curve with a large enough effect; inconclusive = small, poorly fitted or top-dose-only effect; inactive = flat fitted curve, though single readings scatter.
I would appreciate it if you answered using one of these outcomes: T (active), F (inactive)

- compound: "O=C(/C=C\\n1cnc(-c2cc(C(F)(F)F)cc(C(F)(F)F)c2)n1)N1CC(F)(F)C1"
  classification: "T"

For this compound, state the assay outcome: NC(=O)c1cnc(NCCc2ccc(O)c(Cl)c2)nc1NCc1ccccc1
T

Next up: C[C@H](NC(c1cccc2[nH]c(=O)c(=O)[nH]c12)P(=O)(O)O)c1ccc(Br)cc1 (stereo partly specified)
F

Try this compound next: COc1cc(Br)c(Nc2nc(-c3c(C)nc4ncccn34)cs2)c(Br)c1
T

Request: COc1ccc(F)cc1-c1cc(NC(=O)[C@@H]2CCCNC2)ncc1Cl
T

Let us now turn to O=C(O)c1ccccc1NC(=O)N1CCC(c2ccccc2C(F)(F)F)CC1
F

And CC(C)c1c2cc(-c3ccnc(NC4CCC(NC5CCOCC5)CC4)n3)ccc2nn1C (stereo unspecified) ?
T

Follow-up item: COc1cc2ncnc(Nc3ccc(F)c(Cl)c3)c2cc1NC(=O)/C=C/CN1CCCCC1
T

Now the compound Cc1cnc(NC(=O)Nc2cc(Br)c(C)cc2OCC2CNCCO2)cn1 (stereo unspecified)
T

Can you handle CC1CCC2(OC1)OC1CC3C4CCC5C[C@@H](O[C@@H]6O[C@H](CO[C@@H]7OC[C@@H](O)[C@H](O)[C@H]7O)[C@H](O)[C@H](O)[C@H]6O)CC[C@]5(C)C4CC[C@]3(C)C1C2C (stereo partly specified) next?
F

Ok, now CCNCc1nc2c(N)nc3ccccc3c2n1CC(C)(C)O
F

* * *

We begin with a simple list: items and their reported activity change, negative = inhibition.
- subject.of.test: Guanidinoacetate N-methyltransferase (Homo sapiens) (UniProt Q14353)
- protocol.details: Confirmatory Screen for Target Class Profiling of Small Molecule Inhibitors of Methyltransferases (AID 1745852); further: on the % scale 0 is the no-effect control and ±100 the full control effect
- stated.conditions: MTase-Glo luminescence, SAH detection, recombinant enzyme; at 57.3 µM (top of the series) unless noted
Number only, in % [at 19.1 µM]; omit the unit.

- molecule: "C=C[C@H]1[C@H](O[C@@H]2O[C@H](CO)[C@@H](O)[C@H](O)[C@H]2O)OC=C(C(=O)OC)[C@H]1C/C=C(/C=O)[C@@H]1C(C(=O)OC)=CO[C@@H](O[C@@H]2O[C@H](CO)[C@@H](O)[C@H](O)[C@H]2O)[C@@H]1C=C"
  activity change, negative = inhibition, % [at 19.1 µM]: 0
- molecule: "COC(=O)C1=CO[C@@H](O[C@@H]2O[C@H](CO[C@@H]3O[C@H](COC(=O)/C=C/c4cc(OC)c(O)c(OC)c4)[C@@H](O)[C@H](O)[C@H]3O)[C@@H](O)[C@H](O)[C@H]2O)[C@@H]2C(CO)=CC[C@H]12"
  activity change, negative = inhibition, % [at 19.1 µM]: -1.94

Recorded activity change, negative = inhibition of CC1(C)CC[C@]2(C(=O)O[C@@H]3O[C@H](CO)[C@@H](O)[C@H](O)[C@H]3O)CC[C@]3(C)C(=CCC4[C@@]5(C)C[C@@H](O)[C@H](O)[C@@](C)(CO)C5CC[C@]43C)C2[C@@H]1O (stereo partly drawn) , please.
-0.535
